Target: Scavenger receptor class B member 1 (Mus musculus) (UniProt Q61009)
Sequence (Q61009 whole entry, looked up): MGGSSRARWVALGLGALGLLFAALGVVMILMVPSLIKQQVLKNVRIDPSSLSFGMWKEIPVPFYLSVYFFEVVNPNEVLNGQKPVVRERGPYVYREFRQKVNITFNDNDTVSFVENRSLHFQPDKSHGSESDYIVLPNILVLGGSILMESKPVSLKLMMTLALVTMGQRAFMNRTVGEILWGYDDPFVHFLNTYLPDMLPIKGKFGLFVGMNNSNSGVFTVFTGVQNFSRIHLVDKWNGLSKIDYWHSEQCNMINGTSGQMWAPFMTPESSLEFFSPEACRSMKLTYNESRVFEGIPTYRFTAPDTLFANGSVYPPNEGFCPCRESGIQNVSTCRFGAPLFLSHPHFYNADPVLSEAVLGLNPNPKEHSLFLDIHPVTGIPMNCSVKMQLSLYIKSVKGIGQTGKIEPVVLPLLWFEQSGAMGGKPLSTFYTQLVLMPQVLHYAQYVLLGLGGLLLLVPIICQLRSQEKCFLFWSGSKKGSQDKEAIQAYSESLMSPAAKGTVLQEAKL
Test: enhancers of DiI-HDL lipid transfer via SR-BI – cell-based, ldlA[mSR-BI] CHO, DiI fluorescence, cherry-pick, dose response (AID 602191);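 note: cell fluorescence from internalized DiI-labeled HDL after washing; 0% = median of DMSO wells and 100% = twice the DMSO signal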
Conditions: ldlA[mSR-BI] CHO cells, 3 h, at 35 µM (top of the series)
Endpoint: activation (HDL uptake increase) (%)

1. O=C(NCCCc1ccccc1)c1ccc(CS(=O)Cc2ccc(Cl)cc2)o1 (stereo not drawn); 5.61
2. CCN1C[C@@H]2[C@@H]3C(=O)N(Cc4ccccc4)C(=O)[C@@H]3[C@](C)(C1=O)N2C(=O)c1ccc(Br)cc1; 1.77
3. CC(=O)N1CCN(S(=O)(=O)c2cccc(C(=O)Nc3cc(C(F)(F)F)ccc3N3CCOCC3)c2)CC1; -3.42
